- subjectOfTest: Tyrosine-protein phosphatase non-receptor type 1 (Homo sapiens, UniProt P18031)
- Sequence (P18031 whole entry): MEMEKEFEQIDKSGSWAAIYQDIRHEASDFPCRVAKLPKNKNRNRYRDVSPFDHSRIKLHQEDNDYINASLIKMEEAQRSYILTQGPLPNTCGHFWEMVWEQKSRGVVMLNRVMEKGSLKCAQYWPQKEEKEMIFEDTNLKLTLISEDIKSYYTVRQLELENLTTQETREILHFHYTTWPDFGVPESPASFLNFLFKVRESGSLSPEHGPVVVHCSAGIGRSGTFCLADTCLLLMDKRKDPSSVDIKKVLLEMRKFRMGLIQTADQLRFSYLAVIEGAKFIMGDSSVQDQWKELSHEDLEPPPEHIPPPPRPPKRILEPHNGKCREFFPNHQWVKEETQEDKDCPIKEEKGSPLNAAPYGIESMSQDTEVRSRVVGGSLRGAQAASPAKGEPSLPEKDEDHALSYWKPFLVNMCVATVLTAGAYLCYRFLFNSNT
- protocolText: Inhibition of PTP1B in presence of 0.01% Triton X-100
pKi: −log10 of the molar value.
Let's look at some compounds and their measured pKi.

[
  {
    "molSmiles": "CC(=O)c1c(O)ccc2cc(-c3coc4c(C(C)=O)c(O)ccc34)oc12",
    "subjectOfTest": "Tyrosine-protein phosphatase non-receptor type 1 (Homo sapiens, UniProt P18031)",
    "pKi": 4.27
  },
  {
    "molSmiles": "O=c1cc(-c2ccccc2)oc2cc3occc3cc12",
    "subjectOfTest": "Tyrosine-protein phosphatase non-receptor type 1 (Homo sapiens, UniProt P18031)",
    "pKi": 4.35
  },
  {
    "molSmiles": "CC(=O)c1ccc2oc(-c3coc4ccc(C(C)=O)c(O)c34)cc2c1O",
    "subjectOfTest": "Tyrosine-protein phosphatase non-receptor type 1 (Homo sapiens, UniProt P18031)",
    "pKi": 4.56
  },
  {
    "molSmiles": "COc1ccc(-c2cc(=O)c3cc4ccoc4cc3o2)cc1",
    "subjectOfTest": "Tyrosine-protein phosphatase non-receptor type 1 (Homo sapiens, UniProt P18031)",
    "pKi": 4.44
  },
  {
    "molSmiles": "CC(=O)c1cc2cc(-c3coc4cc(O)c(C(C)=O)cc34)oc2cc1O",
    "subjectOfTest": "Tyrosine-protein phosphatase non-receptor type 1 (Homo sapiens, UniProt P18031)",
    "pKi": 4.21
  }
]

meta.source: ChEMBL document CHEMBL1144560
